# testedTarget: UniProtKB P35462
# Sequence (P35462 whole entry): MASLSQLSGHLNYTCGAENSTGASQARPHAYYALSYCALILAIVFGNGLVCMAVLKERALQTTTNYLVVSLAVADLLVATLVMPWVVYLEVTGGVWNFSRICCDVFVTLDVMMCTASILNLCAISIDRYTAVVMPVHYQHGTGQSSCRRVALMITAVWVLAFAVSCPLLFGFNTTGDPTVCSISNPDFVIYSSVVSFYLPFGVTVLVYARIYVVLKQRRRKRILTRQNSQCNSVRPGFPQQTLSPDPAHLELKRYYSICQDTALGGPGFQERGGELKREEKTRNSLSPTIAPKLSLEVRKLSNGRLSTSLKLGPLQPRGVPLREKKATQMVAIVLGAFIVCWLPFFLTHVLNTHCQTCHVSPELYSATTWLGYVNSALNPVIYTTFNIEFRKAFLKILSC
pIC50: −log10 of the molar value.
Property: pIC50; scope: individual compounds

compound	pIC50
C[C@@H]1CN(CCC2CC(NC(=O)C(C)(C)O)C2)CCN1c1cccc(Cl)c1Cl (some centres unmarked) [Example 22]	8.56
Cc1cnoc1C(=O)N[C@H]1C[C@H](CCN2CCN(c3cccc(Cl)c3Cl)CC2)C1 [Example 13A]	8.87
CN(C(=O)NC1CC(CCN2CCN(c3cccc(Cl)c3Cl)CC2)C1)C1CC1 (centres unmarked) [Example 20]	8.70
O=C(N[C@H]1C[C@@H](CCN2CCN(c3cccc(Cl)c3Cl)CC2)C1)c1ncco1 [Example 12B]	8.60
O=C(N[C@H]1C[C@H](CCN2CCN(c3cccc(Cl)c3Cl)CC2)C1)c1ncco1 [Example 12A]	9.43
O=C(N[C@H]1C[C@H](CCN2CCN(c3cccc(Cl)c3Cl)CC2)C1)C1(O)CC1 [Example 6A]	9.12
CCN(C)C(=O)NC1CC(CCN2CCN(c3cccc4sccc34)CC2)C1 (centres unmarked) [Example 24]	8.95
Cc1cc(C(=O)NC2CC(CCN3CCN(c4cccc(Cl)c4Cl)CC3)C2)on1 (centres unmarked) [Example 14A]	9.47

###

# assayOverview: Solubility of hydrochloride and free base in different media (37°C, 24 hours, HPLC)
# Type: physicochemical
# condition: thermodynamic from solid, FeSSIF
readout: solubility at 24 h

molecule	readout	recordedValue
O=C(N[C@H]1C[C@H](CCN2CCN(c3cccc(Cl)c3Cl)CC2)C1)c1ncco1 [crystal form B of free base]	solubility at 24 h	> 1000 µg/mL
Cl.O=C(N[C@H]1C[C@H](CCN2CCN(c3cccc(Cl)c3Cl)CC2)C1)c1ncco1 [hydrochloride]	solubility at 24 h	> 1000 µg/mL

###

Property: AUC(0-inf); scope: individual molecules
# assayOverview: Pharmacokinetic assay in Balb/c mice (plasma and brain tissue)
# Type: in vivo
# condition: male, mouse, po, Brain, p.o. 5 mg/kg, read-out: Area under curve AUC0-∞
readout: AUC(0-inf) (ng·h/mL)

molecule	readout	recordedValue
O=C(NC1CC(CCN2CCN(c3cccc(Cl)c3Cl)CC2)C1)c1ncco1 (stereo not drawn)	AUC(0-inf)	4880
O=C(NC1CC(CCN2CCCN(c3cccc(Cl)c3Cl)CC2)C1)c1ccco1 (stereo not drawn)	AUC(0-inf)	1650
CCN(C)C(=O)NC1CC(CCN2CCN(c3cccc4sccc34)CC2)C1 (stereo not drawn)	AUC(0-inf)	2310

###

# assayOverview: Solubility of hydrochloride and free base in different media (37°C, 24 hours, HPLC)
# Format: physicochemical
# condition: aqueous buffer, thermodynamic from solid, Buffer pH 4
Property: solubility at 24 h; scope: individual compounds

compound	solubility at 24 h
O=C(N[C@H]1C[C@H](CCN2CCN(c3cccc(Cl)c3Cl)CC2)C1)c1ncco1 [crystal form B of free base]	> 1000 µg/mL
Cl.O=C(N[C@H]1C[C@H](CCN2CCN(c3cccc(Cl)c3Cl)CC2)C1)c1ncco1 [hydrochloride]	> 1000 µg/mL

###

# testedTarget: UniProtKB P28223
# Sequence (P28223 whole entry): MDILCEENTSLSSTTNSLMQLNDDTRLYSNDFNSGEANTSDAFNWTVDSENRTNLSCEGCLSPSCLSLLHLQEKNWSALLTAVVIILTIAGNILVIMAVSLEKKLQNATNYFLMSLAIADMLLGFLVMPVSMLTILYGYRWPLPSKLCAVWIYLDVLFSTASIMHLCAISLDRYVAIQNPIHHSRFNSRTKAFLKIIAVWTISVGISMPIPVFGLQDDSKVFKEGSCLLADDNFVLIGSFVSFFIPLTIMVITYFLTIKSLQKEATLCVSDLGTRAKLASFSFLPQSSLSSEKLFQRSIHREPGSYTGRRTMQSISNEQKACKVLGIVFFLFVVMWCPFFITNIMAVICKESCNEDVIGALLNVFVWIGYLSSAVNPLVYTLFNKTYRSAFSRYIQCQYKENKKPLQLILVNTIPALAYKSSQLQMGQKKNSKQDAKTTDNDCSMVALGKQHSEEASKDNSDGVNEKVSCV
# assayOverview: Radioligand binding assay, 5-HT2A receptor ([3H]-Ketanserin)
# Design: purchased PerkinElmer
# condition: Human 5-HT2A Receptor membrane, [3H]-Ketanserin 2 nM; read-out: 5HT-2A Binding IC50
pIC50: −log10 of the molar value.

compound	pIC50
Cc1cc(C(=O)NC2CC(CCN3CCN(c4cccc(Cl)c4Cl)CC3)C2)on1 (stereo not drawn) [Example 14A]	8.87
O=S(=O)(NC1CC(CCN2CCN(c3cccc(Cl)c3Cl)CC2)C1)C1CC1 (stereo not drawn) [Example 11]	7.36
Cc1cnoc1C(=O)N[C@H]1C[C@H](CCN2CCN(c3cccc(Cl)c3Cl)CC2)C1 [Example 13A]	8.74
